TGT: BRD3-BD1 (Homo sapiens (Human))
Sequence (Q15059 34-140): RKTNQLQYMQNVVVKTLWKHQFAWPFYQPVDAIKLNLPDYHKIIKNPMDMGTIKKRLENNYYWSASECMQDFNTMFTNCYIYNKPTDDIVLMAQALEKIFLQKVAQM
ASSAY COMMENT: AlphaLisa bromodomain binding assay, BRD3-BD1
CONDITION LABEL: Table 6; read-out: BRD3(1) IC50
Measured IC50 values are reported for all entries that follow.
Supply the numeric figure in nM, leaving out any unit text.

{"columns": ["MOLECULE", "IC50 (nM)"],
 "data": [
  ["COc1cc(Nc2ncc3ccn(-c4cccc(NS(=O)(=O)C(C)(C)C)c4)c3n2)ccc1N1CCN(C)CC1", 161],
  ["CNCCNC(=O)Cc1ccc(Nc2ncc3ccn(-c4cccc(NS(=O)(=O)C(C)(C)C)c4)c3n2)cc1", 117],
  ["CC(C)(C)S(=O)(=O)Nc1cccc(-n2ccc3cnc(Nc4ccc(C(=O)N5CCNCC5)c(F)c4)nc32)c1 [drawing 463]", 123],
  ["Cc1cnc(Nc2ccc(N3CCN(C)CC3)cc2)nc1Nc1cccc(NS(=O)(=O)C(C)(C)C)c1 [drawing 271]", 366]
]}

Task: Fill in the blank: the reported IC50 of Cc1cnc(Nc2ccc(N3CCN(C)CC3)c(F)c2)nc1Nc1ccc2c(c1)N(S(=O)(=O)C(C)(C)C)CC2 [drawing 246] is ____.
Result: 183

Task: Do the same for CC(C)(C)S(=O)(=O)Nc1cc(-n2ccc3cnc(Nc4ccc(N5CCNCC5)c(F)c4)nc32)ccc1F [drawing 428] please
Result: 59

Task: Do the same for COc1cc(Nc2ncc3ccn(-c4cccc(NS(=O)(=O)C(C)(C)C)c4)c3n2)ccc1N1CCNCC1 please
Result: 142

Task: Do the same for Cc1cnc(Nc2ccc(OCCN3CCCC3)cc2)nc1Nc1cccc(NS(=O)(=O)C(C)(C)C)c1 please
Result: 853

Task: Do the same for Cc1cnc(Nc2ccc(N3CCN(C)CC3)cc2)nc1Nc1cccc(NS(=O)(=O)C(C)(C)C)c1 [drawing 245] please
Result: 366

Task: Do the same for CC(C)(C)S(=O)(=O)Nc1cccc(-n2ccc3cnc(Nc4ccc(C(=O)NC5CCNCC5)c(F)c4)nc32)c1 please
Result: 78

Task: Do the same for CNC1CCN(c2ccc(Nc3ncc4ccn(-c5ccc(F)c(NS(=O)(=O)C(C)(C)C)c5)c4n3)cc2F)CC1 [drawing 456] please
Result: 97

Task: Do the same for CNC1CCN(c2ccc(Nc3ncc4scc(-c5ccc(F)c(NS(=O)(=O)C(C)(C)C)c5)c4n3)cc2F)CC1 [drawing 458] please
Result: 154

---

TGT: BRD4-BD1 (Homo sapiens (Human), UniProt O60885)
ASSAY COMMENT: AlphaLisa bromodomain binding assay, BRD4-BD1
CONDITION LABEL: Table 6; read-out: BRD4(1) IC50
Binary label based on IC50 with cut-off 200 nM: below gives 1, not below gives -1.

The examples below pair each entry with its known result.
{"columns": ["COMPOUND", "LABEL VALUE"],
 "data": [
  ["CC(C)(C)S(=O)(=O)Nc1cccc(-n2ccc3cnc(Nc4ccc(N5CCNCC5)cc4)nc32)c1 [drawing 306]", -1],
  ["CN(C)CC1CCN(c2ccc(Nc3ncc4ccn(-c5ccc(F)c(NS(=O)(=O)C(C)(C)C)c5)c4n3)cc2F)CC1", 1],
  ["CC(C)(C)S(=O)(=O)Nc1cc(-n2ccc3cnc(Nc4ccc(C5CCNCC5)cc4)nc32)ccc1F", -1],
  ["Cc1cnc(Nc2ccc(N3CCN(C)CC3)cc2)nc1Nc1cccc(NS(=O)(=O)C(C)(C)C)c1 [drawing 114]", -1],
  ["CN1CCC(Nc2nc(Nc3ccc(Cl)c(NS(=O)(=O)C(C)(C)C)c3)c3ccsc3n2)CC1", 1],
  ["CN1CCN(c2ccc(Nc3ncc4cccc(-c5cccc(NS(=O)(=O)C(C)(C)C)c5)c4n3)cc2)CC1", -1]
]}

Task: IC50 under 200 nM? Item: O=C(NC1CCNCC1)c1ccc(Nc2ncc3ccn(-c4cccc(NS(=O)(=O)C5CC5)c4)c3n2)cc1F
Result: -1

Task: Do the same for O=S(=O)(Nc1cccc(-n2ccc3cnc(Nc4ccc(C5CCNCC5)cc4)nc32)c1)C1CC1 please
Result: -1
